Tested on: human red blood cells
Assay: Red blood cell lysis assay
Type: cell-based
Conditions: human erythrocytes, 37 °C, 1 h
recordedEndpoint: Hemolytic Activity (HC50) (µM)

compound="CC(C)c1ccc(CNC(=O)C=Cc2ccccc2)cc1 [Compound 32, N-(4-isopropylbenzyl)cinnamamide]" tgt="human red blood cells" reportedmeasurement="> 1431.42 µM"
compound=Cc1ccc(COC(=O)C=Cc2ccccc2)cc1 tgt="human red blood cells" reportedmeasurement="> 1585.28 µM"
compound=O=C(/C=C/c1ccccc1)NCc1ccc2c(c1)OCO2 tgt="human red blood cells" reportedmeasurement="> 1421.85 µM"
compound="C[C@@H]1[C@H](O)[C@@H](C)/C=C/C=C/C=C/C=C/C=C/C=C/C=C/[C@H](O[C@@H]2O[C@H](C)[C@@H](O)[C@H](N)[C@@H]2O)C[C@@H]2O[C@](O)(C[C@@H](O)C[C@@H](O)[C@H](O)CC[C@@H](O)C[C@@H](O)CC(=O)O[C@H]1C)C[C@H](O)[C@H]2C(=O)O [Amphotericin B, reference compound]" tgt="human red blood cells" reportedmeasurement="7.04 µM"
compound="O=C(/C=C/c1ccccc1)OCc1ccc2c(c1)OCO2 [Compound 15, piperonyl cinnamate]" tgt="human red blood cells" reportedmeasurement="> 1406.73 µM"
compound=CCCCOC(=O)/C=C/c1ccccc1 tgt="human red blood cells" reportedmeasurement="> 1958.19 µM"
